target: Cytochrome P450 2C19 (Homo sapiens); assay: Cytochrome panel assay with activity outcomes; conditions: recombinant CYP, pro-luciferin dealkylation, luminescence, p450-cyp2c19; series mostly up to 57.1 µM
The campaign covered roughly 16,000 compounds. About 5,800 (36%) were called active. Not shown: some 23% with an inconclusive outcome. Calls follow the shape of the dose curve; as a rule, active = well fitted curve in the direction sought with a large enough effect; inconclusive = small, poorly fitted or top-dose-only effect, or effect the other way; inactive = no such curve, though single readings can be large or run the other way. Some of the results follow.
Choose the fitting class; nothing outside y = active, n = inactive is accepted.

• CCCCN(CC)S(=O)(=O)c1ccc(C(=O)Nc2nnc(CSC)o2)cc1 = n
• Cc1ccc(-c2nn(-c3ccccc3)cc2/C=N/NS(=O)(=O)c2ccccc2)cc1 = y
• Cc1cc2cc3c(C)cc(=O)oc3c(C)c2o1 = n
• O=C(O)C1=CC(=C(c2ccc(O)c(C(=O)O)c2)c2ccc(O)c(C(=O)O)c2)C=CC1=O = y
• CCOC(=O)C1CCCN(C(=O)CCn2nc(-c3ccccc3)ccc2=O)C1 (configuration not stated) = n
• O=C(NCc1ccco1)Nc1cccs1 = y
• CCCS(=O)(=O)N1CCCC(C(=O)N2CCN(C(=O)OCC)CC2)C1 (configuration not stated) = n
• COc1ccc(-c2ccc(=N)n(CCCC(=O)O)n2)cc1 = y
• CNc1ccnc(-c2ccccc2CN(C)C)n1 = n
• CCOC(=O)N/N=C/c1ccc(C)o1 = n

Challenge: Can you look up the reported call for COc1cccc(NC(=O)Cc2c(C(=O)O)[nH]c3ccccc23)c1 for me?
Response given: n

Challenge: Follow-up item: COc1ccc(CNc2ccnc(-c3ccccc3C(F)(F)F)n2)c(OC)c1
Response given: y

Challenge: Follow-up item: COC(=O)N1CCC2(CC1)CCN(c1ccncc1)CC2
Response given: n

Challenge: Follow-up item: O=C(c1cccs1)n1nc(-c2ccc(Cl)cc2)nc1NCc1ccco1
Response given: y

Challenge: Follow-up item: CCOC(=O)C1CCCN(S(=O)(=O)c2ccccc2)C1 (configuration not stated)
Response given: y

Challenge: Follow-up item: C=CCNC(=O)/C(=C\C=C\c1ccccc1)NC(=O)c1ccc(OCCCC)cc1
Response given: y

Challenge: Follow-up item: COc1ccc(C[C@@](C)(N)C(=O)O)cc1OC
Response given: n
